biological target: Sialic acid-binding Ig-like lectin 9 (Homo sapiens); assay: Hs-Siglec9 ALPHAscreen SOP 20170721; design: scale not given: direction of the effect not stated beside the values; conditions: 10 µM
Attribute: Percent Effect
Give just the numeric value; % need not be written.

// worked examples, Percent Effect included
* Cc1ccc(N2CCN(C(=O)COc3nccc(C)n3)CC2)nn1 | 17.7
* CN(C)[C@H]1CCCCN(C(=O)CCc2csc(N)n2)C1 | -1.59
* O=C(c1ccoc1)N1CCC2(CC1)C(=O)Nc1ccccc12 | 3.61
* CCN1CC(C(=O)NC(C)(C)CC(C)(C)C)CC1=O (centres undefined) | 22.8
* CN(C)c1ccc(C(=O)NCC2(c3ccccc3)CCOCC2)cc1 | -5.97
* CCn1ccnc1CN1CCC(CCC(=O)Nc2ccccc2Cl)CC1 | 7.23
* Cc1ccc(F)cc1NC(=O)NCC(C)N1CCOCC1 (centres undefined) | -0.431
* Cc1c(C)n(Cc2ccncc2)c2nc3c(c(N)c12)CCCCC3 | 1.27

Task item: Look up Percent Effect: Cc1nn(C)c(C)c1C1COCCN1C(=O)Cc1cccc(F)c1 (centres undefined)
Reply: 3.58

Task item: // repeat for CC(O)CNC(=O)NCc1cccnc1OC1CCCC1 (centres undefined) and report
Reply: -3.55

Task item: // repeat for N#Cc1cc(NC(=O)c2ccsc2)ccc1N1CCC(O)CC1 and report
Reply: 18.9

Task item: // repeat for CCCN1CCN(C(=O)c2cnccn2)[C@H]2CS(=O)(=O)C[C@H]21 and report
Reply: 30.7

Task item: // repeat for Cn1cc(CNCCOc2ccc(F)c(F)c2)c(-c2cccnc2)n1 and report
Reply: 20.6

Task item: // repeat for Cc1nc(CN2CCC(CNC(=O)Nc3ccccn3)CC2)oc1C and report
Reply: -0.537

Task item: // repeat for COc1ccc(C(C)N2CCN(Cc3nccn3C)CC2)cc1Cl (centres undefined) and report
Reply: 9.44

Task item: // repeat for CCn1nc(C)c2ccn(CC(=O)NC3CCCC3)c(=O)c21 and report
Reply: 0.145

Task item: // repeat for Cc1ccc(NC2CCN(C(=O)c3ccc(Cl)o3)CC2)nn1 and report
Reply: -2.43

Task item: // repeat for CCc1nc(CCNC(=O)C2CCOC2)sc1C (centres undefined) and report
Reply: 10.6

The reported measurements were obtained from ChEMBL document CHEMBL3988442.
